system: Human lung adenocarcinoma cell A549; test: CCK-8 cell proliferation assay, A549; format: cell-based; details: A549 cells, 72 hrs with drug, CCK-8, OD 450 nm
# key: entry, value: IC50
Kindly answer with a numeric value in nM, unit omitted.

// below: answered molecules
1. N#CN=C(NCCCCCN1CCN(C(=O)c2ccccc2)CC1)Nc1cccnc1 | 71
2. COc1cccc(OC)c1C(=O)N1CCN(CCCCCNC(=NC#N)Nc2ccncc2)CC1 | 73
3. N#CN=C(NCCCCCN1CCN(C(=O)c2cccs2)CC1)Nc1cccnc1 | 74
4. N#CN=C(NCCCCCN1CCN(C(=O)c2ccco2)CC1)Nc1cccnc1 | 32
5. N#CN=C(NCCCCCCC1CCN(C(=O)C2CCCS2)C1)Nc1ccncc1 (stereo not shown) | 42
6. N#CN=C(NCCCCCN1CCN(C(=O)C2CCCS2)CC1)Nc1ccncc1 (stereo not shown) | 71

Now take the following molecule into account.
Exercise: State IC50 (Human lung adenocarcinoma cell A549) of N#CN=C(NCCCCCC1CCN(C(=O)C2CCCO2)C1)Nc1ccncc1 (stereo not shown) .
Solution: 28

====

system: Human pancreatic cancer cell CFPAC-1; test: CCK-8 cell proliferation assay, CFPAC-1; format: cell-based; details: CFPAC-1 cells, 72 hrs with drug, CCK-8, OD 450 nm
MEASURE: pIC50
# pIC50: negative log10 of molar concentration; output just the value

// below: answered compounds
1) N#CN=C(NCCCCCN1CCN(C(=O)C2CCCO2)CC1)Nc1ccncc1 (centres unmarked) | 7.41
2) N#CN=C(NCCCCCC1CCN(C(=O)c2sccc2F)C1)Nc1ccncc1 (centres unmarked) | 7.39
3) COc1cccc(OC)c1C(=O)N1CCC(CCCCCCNC(=NC#N)Nc2ccncc2)C1 (centres unmarked) | 7.33
4) N#CN=C(NCCCCCC1CCN(C(=O)c2cc3ccccc3o2)C1)Nc1ccncc1 (centres unmarked) | 7.30
5) N#CN=C(NCCCCCCC1CCN(C(=O)C2CCCS2)C1)Nc1ccncc1 (centres unmarked) | 7.28
6) N#CN=C(NCCCCCCC1CCN(C(=O)c2ccco2)C1)Nc1cc(F)nc(F)c1 (centres unmarked) | 7.54
7) N#CN=C(NCCCCCCC1CCN(C(=O)c2ccc[nH]2)C1)Nc1ccncc1 (centres unmarked) | 7.36

Now take the following compound into account.
Exercise: Let me know recorded pIC50 for O=C(/C=C/c1cccnc1)NCCCCC1CCN(C(=O)c2ccccc2)CC1 [FK866, reference compound] , thanks.
Solution: 7.43
